# subjectOfTest: T1, human CD47-Fc (human, UniProt Q08722 19-139)
# T1 construct: also called hCD47; human CD47-Fc protein; not shown: Fc part
# procedureSummary: direct ELISA, coated human CD47-Fc, OD450

>  <binder>
E-D6, human IgG1null (antibody, V domains shown, IgG1null; also called Clone E-D6) VH: EVQLVQSGAEVKKPGESLKISCKGSGYSFTNYNIHWVRQMPGKGLEWMGTIYPGDSDTSYNPKFQGQVTISADKSISTAYLQWSSLKASDTAMYYCARGGYRAEDYWGQGTLVTVSS VL: DIVMTQSPLSLPVTPGEPASISCRSSQSLLHSNGNTYLGWYLQKPGQSPQLLIYKGSNRFSGVPDRFSGSGSGTDFTLKISRVEAEDVGVYYCMQGSHVPYTFGQGTKLEIK

>  <binding result>
binds

$$$$
>  <binder>
F-G3, human IgG1null (antibody, V domains shown, IgG1null; also called clone F-G3) VH: EVQLVQSGAEVKKPGESLKISCKGSGYSFTNYNIHWVRQMPGKGLEWMGTIYPGNSDTSYNHKFQGQVTISADKSISTAYLQWSSLKASDTAMYYCARGGNRAEDYWGQGTLVTVSS VL: DIVMTQSPLSLPVTPGEPASISCRSSQSLLHSNGNTYLGWYLQKPGQSPQLLIYKGSNRFSGVPDRFSGSGSGTDFTLKISRVEAEDVGVYYCMQASQVPYTFGQGTKLEIK

>  <binding result>
binds

$$$$
>  <binder>
D-C12, human IgG1null (antibody, V domains shown, IgG1null; also called Clone D-C12) VH: EVQLVQSGAEVKKPGESLKISCKGSGYSFTNYNIHWVRQMPGKGLEWMGTIYPGNSDTRYNPKFQGQVTISADKSISTAYLQWSSLKASDTAMYYCARGGFRAMDYWGQGTLVTVSS VL: DIVMTQSPLSLPVTPGEPASISCRSSQSLLHSNGNTYLGWYLQKPGQSPQLLIYKGSNRFSGVPDRFSGSGSGTDFTLKISRVEAEDVGVYYCMQGSHVPYTFGQGTKLEIK

>  <binding result>
binds

$$$$

// data source = patent US20260015420A1
